Assay: Aqueous solubility in water
Format: physicochemical
ENDPOINT LABEL: solubility (µg/mL)
Numbers only, in µg/mL.

Supply measured solubility of CN1[C@@H](CCc2ccccc2)CCC[C@H]1CCc1ccccc1.O=S(=O)(O)O in your reply.
300
